TARGET_OF_ASSAY: murine PPARδ (Mus musculus, UniProt P35396)
Sequence (P35396 210-438 limits assumed): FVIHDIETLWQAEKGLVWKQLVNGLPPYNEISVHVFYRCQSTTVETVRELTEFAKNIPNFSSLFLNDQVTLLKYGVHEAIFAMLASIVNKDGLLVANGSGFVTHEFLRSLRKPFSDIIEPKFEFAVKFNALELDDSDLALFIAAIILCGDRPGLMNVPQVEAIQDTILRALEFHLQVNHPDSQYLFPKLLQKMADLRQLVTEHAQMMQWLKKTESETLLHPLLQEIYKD
ASSAY_NAME: PPAR-GAL4 transient transfection transactivation assay (SPAP reporter) in CV-1 cells, PPARδ
EXPERIMENTAL_SETUP: CV-1 cells, GAL4 chimera; read-out: mPPARδ, murine receptor activation EC50
Procedure: The functional potency of selected ligands was evaluated using a transient transfection assay in CV-1 cells. The ligand binding domains for murine PPARα, PPARδ, and PPARγ were fused to the yeast transcription factor GAL4 DNA binding domain as a chimera. CV-1 cells were propagated and transiently transfected with expression vectors for the respective PPAR chimera as previously described.
ASSAY_METRIC: EC50 (µM)

{"SMILES_STR": "COC(=O)c1ccccc1N[C@@H](Cc1ccc(OCCc2nc(-c3ccccc3)oc2C)cc1)C(=O)O", "ASSAY_METRIC": "EC50", "UNITS": "µM", "EXPERIMENTAL_RESULT": 10}

The reported measurements were obtained from paper PMC1940322.
